Biological target: T1, Hof1, Q05080
T1 sequence (Q05080 590-669, looked up): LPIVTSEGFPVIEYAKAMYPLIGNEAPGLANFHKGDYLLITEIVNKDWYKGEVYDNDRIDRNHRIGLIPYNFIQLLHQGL
Assay: SPOT array
Details: median of control spots 4086
Record form. Attribute: SPOT intensity. Fill in for each entry.
Number only, please.

// SPOT intensity lookup, binder = ITHRLRISIPGITGR , result: 1

// SPOT intensity lookup, binder = PPPPPPPPPPLPQSL , result: 5

Documented SPOT intensity of QQEQNTPPLPPKPKS : 950

// SPOT intensity value for FIRKRAPTPPAPSRS : 6

The reported value for YLTRPLPSTPNEDSR in terms of SPOT intensity is 0

RLSRLLLSLPPESFT has a reported SPOT intensity of 89

// sample KRNRLKILLPFLEQS , its SPOT intensity was 6

The binder listed as LPPPPPPPPPPPLPQ shows SPOT intensity equal to 1

The binder identified as AAAPKHAPPPVPNET registered its SPOT intensity at 0

The reported value for HHKRRPTTIDVPGLT in terms of SPOT intensity is 6

Note to self: SPOT intensity recorded for RRRRRPHRIERPLSN was 4

Memo: FYHRPAPKPPVTKKV , reported SPOT intensity: 0

Query LLIRWLILMPLVGSR yields SPOT intensity of 12

The binder listed as ALRRRLPVTRSKINW shows SPOT intensity equal to 14

Reported SPOT intensity ( RRARRQMGIPTISQV ) = 3

Input DLPLPDLPPEPPTEL . Output SPOT intensity: 566

The binder listed as RKQRSIPLSPIVPES has a reported SPOT intensity of 0

GET /value?item= VAPPPLPNRQLPNLD &field=SPOT intensity returns 1330

Looking up RTRRRPPPPPIPSTQ , I see its SPOT intensity listed as 8

SPOT intensity recorded for this binder, LLLLFVPDSPYDPAI , is 0

response.value for PKRRAPPPVPKKPSS (field: SPOT intensity) = 8

Record summary for KRRTSLFPWLHKPGI : reported SPOT intensity = 5

The binder identified as SSSSSPPPLPTRRDH registered its SPOT intensity at 16

// EREKALPPIPFTTTL : SPOT intensity value = 354

Memo: DKKTKPTPPPKPSHL , reported SPOT intensity: 3

binder PVLPPPRSPNRPTLS , SPOT intensity observed: 9

SPOT intensity recorded for this binder, PLRRTVMSLPGNHDI , is 0

Given item NTMKKRPAPPSLPSL , the value recorded as its SPOT intensity is 489

Query TPEIPPPLPPKIMVH yields SPOT intensity of 2240

Form field SPOT intensity, entry AIPPPVPNRPGGTTN : 1
